# Tested on: ARID1A-WT HCT116 cells
# method: Drug library screen, cell viability (CellTiter-Glo)
# Format: cell-based, human
# condition_context: HCT116 ARID1A-WT; 10 μM for 5 days; relative to cells treated with solvent (DMSO)
# Procedure: ARID1A-WT and ARID1A-KO HCT116 cancer cells were used for screening assays. […] Cell viability was assessed after 5 days using the CellTiter-Glo Luminescent Cell Viability Assay (Promega). Luminescence was measured using an Envision Multi-label plate reader (PerkinElmer). The luminescence reading was used to determine the cell viability relative to that of cells treated with solvent (DMSO). […]
readout_kind: Cell viability, WT

| compound | readout_kind | result |
| --- | --- | --- |
| O=C1Nc2ccccc2C2(CCN(CCc3ccc(C(F)(F)F)cc3)CC2)O1 | Cell viability, WT | 37.34 |
| COc1cc2ncnc(Nc3cccc(Cl)c3)c2cc1OC | Cell viability, WT | 149.2606 |
| CCOC(=O)C1=C(N)Oc2ccc(Br)cc2C1C(C#N)C(=O)OCC (centres unmarked) | Cell viability, WT | 114.2556 |
| C=C1[C@@H](C)[C@H]2[C@H](Cc3ccccc3)NC(=O)[C@]23[C@H](OC(C)=O)/C=C/[C@@](C)(O)C(=O)[C@@H](C)C/C=C/[C@H]3[C@@H]1O | Cell viability, WT | 63 |
| CN1C(=O)CN=C(c2ccc(Cl)cc2)c2cc(Cl)ccc21 | Cell viability, WT | 92.88 |

====

# System: ARID1A-KO HCT116 cells
# method: Drug library screen, cell viability (CellTiter-Glo)
# Format: cell-based, human
# condition_context: HCT116 ARID1A-KO; 10 μM for 5 days; relative to cells treated with solvent (DMSO)
Here, each record is paired with measured Cell viability, KO data.
readout_kind: Cell viability, KO

| molecule | result |
| --- | --- |
| O=C(NCCCCCCNC(=O)ON=C1CCCCC1)ON=C1CCCCC1 [RHC80267] | 92.22 |
| O=C1C(SCCO)=C(SCCO)C(=O)c2ccccc21 [NSC95397] | 15.8033 |
| CC(C)n1nc(-c2cc3cc(O)ccc3[nH]2)c2c(N)ncnc21 [Torkinib] | 9.988 |
| COc1ccc(OC)c2c(=S)c3ccccc3[nH]c12 [NSC625987] | 161.7582 |
| CCN(CC)CCNC(=O)c1c(C)[nH]c(/C=C2\C(=O)Nc3ccc(Cl)cc32)c1C [SU11652] | 8.987 |
| CN1C(=O)CN=C(c2ccc(Cl)cc2)c2cc(Cl)ccc21 [Ro 5-4864] | 98.27 |
| COc1cc2nccc(Oc3ccc(NC(=S)NC(=O)c4ccccc4C)cc3)c2cc1OC | 107.0846 |
| Cc1cn([C@H]2C[C@H](N=[N+]=[N-])[C@@H](CO)O2)c(=O)[nH]c1=O [AZT] | 60.27 |
| CC(C)c1ccc2c(c1)c(SC(C)(C)C)c(CC(C)(C)C(=O)O)n2Cc1ccc(Cl)cc1 [MK 886] | 112.1339 |
| COC(=O)[C@H](CC(C)C)NC(=O)c1ccc(NC[C@@H](N)CS)cc1-c1ccccc1 [GGTI-286] | 123.5827 |
| C[C@H]1CCC/C=C/[C@@H]2C[C@H](O)C[C@H]2[C@H](O)/C=C/C(=O)O1 [brefeldin A] | 4.578 |
| CCOC(=O)[C@H]1O[C@@H]1C(=O)N[C@@H](CC(C)C)C(=O)NCCC(C)C [E-64d] | 100.5678 |
| CC(C)c1cc(/C=C(\C#N)C(=O)NCCCc2ccccc2)cc(C(C)C)c1O [SU1498] | 119.3751 |
| CO/C1=C\C(C)=C\[C@@H](C)[C@@H](O)[C@@H](C)C/C(C)=C/C=C/[C@H](OC)[C@@H]([C@@H](C)[C@@H](O)[C@H](C)[C@@]2(O)C[C@@H](O)[C@H](C)[C@@H](C(C)C)O2)OC1=O [Bafilomycin AI] | 4.345 |
| O=[N+]([O-])c1ccc(-c2nc(-c3ccc(F)cc3)c(-c3ccncc3)[nH]2)cc1 [PD169316] | 151.5532 |
| O=C1Nc2ccccc2C2(CCN(CCc3ccc(C(F)(F)F)cc3)CC2)O1 [RS 102895] | 47.58 |
| CN(C)CCCn1cc(C2=C(c3c[nH]c4ccccc34)C(=O)NC2=O)c2ccccc21.Cl [Bisindolymaleimide I, HCl] | 6.106 |
